Target: HLA-C*07:02
Experiment: IEDB peptide-MHC binding, purified MHC/direct/fluorescence; filed as Kd, often an IC50 or EC50 that approximates it; bounds were set here for any values at or beyond the usual limits of such assays
Details: source organism: Rickettsia bellii RML369-C
attribute-measured: Kd
I'd appreciate it if you included the unit after the number.

Record request: Kd value, item FAYKTGSSM 0.876 µM

====

Target: HLA-A*11:01
Assay: IEDB peptide-MHC binding, purified MHC/direct/fluorescence; filed as Kd, often an IC50 or EC50 that approximates it; bounds were set here for any values at or beyond the usual limits of such assays
Settings: source organism: Camelpox virus M-96
attribute-measured: Kd

Record request: Kd value, item FYLFTFTIY ≥ 20 µM

====

Molecular target: HLA-B*15:09
Assay: IEDB peptide-MHC binding, purified MHC/direct/fluorescence; filed as Kd, often an IC50 or EC50 that approximates it; bounds were set here for any values at or beyond the usual limits of such assays
Details: source organism: Variola virus
pKd: −log10 of the molar value.
attribute-measured: pKd

• FYLFTFTIY = ≤ 4.70
• MTRVTNNVY = ≤ 4.70

API: the following record is the query input.
Record request: pKd value, item ILQDRIRMY ≤ 4.70

====

Molecular target: HLA-A*69:01
Assay: IEDB peptide-MHC binding, purified MHC/competitive/fluorescence; filed as Kd, often an IC50 or EC50 that approximates it; bounds were set here for any values at or beyond the usual limits of such assays
Conditions: source organism: Streptococcus pneumoniae TIGR4
attribute-measured: Kd

Entry YQVEGATRV , system HLA-A*69:01: what Kd was measured? ≥ 20 µM

====

Target: HLA-B*58:01
Experiment: IEDB peptide-MHC binding, purified MHC/competitive/fluorescence; filed as Kd, often an IC50 or EC50 that approximates it; bounds were set here for any values at or beyond the usual limits of such assays
Conditions: source organism: Yersinia pseudotuberculosis IP 31758
attribute-measured: Kd
I'd appreciate it if you included the unit after the number.

Record request: Kd value, item RQIRMTSTI 617 nM

====

Target: HLA-B*18:01
Test: IEDB peptide-MHC binding, purified MHC/direct/fluorescence; filed as Kd, often an IC50 or EC50 that approximates it; bounds were set here for any values at or beyond the usual limits of such assays
Conditions: source organism: Listeria monocytogenes serotype 4b str. H7858
attribute-measured: Kd

Record request: Kd value, item AALEGLSGF ≥ 20 µM

====

Recorded measurements of Kd, one per entry
Biological target: HLA-B*44:03
Assay: IEDB peptide-MHC binding, purified MHC/competitive/radioactivity; filed as Kd, often an IC50 or EC50 that approximates it; bounds were set here for any values at or beyond the usual limits of such assays
Conditions: source organism: Dengue virus 3 Martinique/1243/1999
The response must be a number in nM with no trailing unit.

- NELNYILWE: 270

API: the following record is the query input.
Record request: Kd value, item AEIPLQWIA 634

====

Biological target: HLA-B*35:01
Experiment: IEDB peptide-MHC binding, purified MHC/competitive/fluorescence; filed as Kd, often an IC50 or EC50 that approximates it; bounds were set here for any values at or beyond the usual limits of such assays
Details: source organism: Reston ebolavirus
attribute-measured: pKd
Please treat pKd as minus the base-10 logarithm of the molar concentration.

Record request: pKd value, item QAFEAGIDF 9.70

====

Target: HLA-B*18:01
Assay: IEDB peptide-MHC binding, purified MHC/competitive/fluorescence; filed as Kd, often an IC50 or EC50 that approximates it; bounds were set here for any values at or beyond the usual limits of such assays
Conditions: source organism: Xanthobacter autotrophicus Py2
pKd: −log10 of the molar value.
attribute-measured: pKd

Record request: pKd value, item GQMYNMNTL ≤ 4.70

====

Biological target: HLA-B*15:01
Experiment: IEDB peptide-MHC binding, purified MHC/competitive/fluorescence; filed as Kd, often an IC50 or EC50 that approximates it; bounds were set here for any values at or beyond the usual limits of such assays
Settings: source organism: Bacillus anthracis str. A0488
attribute-measured: pKd
Please treat pKd as minus the base-10 logarithm of the molar concentration.

Record request: pKd value, item IVVDNTSAF 7.15

====

Molecular target: HLA-B*27:05
Experiment: IEDB peptide-MHC binding, purified MHC/competitive/fluorescence; filed as Kd, often an IC50 or EC50 that approximates it; bounds were set here for any values at or beyond the usual limits of such assays
Conditions: source organism: Listeria monocytogenes J0161
pKd: −log10 of the molar value.
attribute-measured: pKd

Record request: pKd value, item AALEGLSGF ≤ 5.30

====

Molecular target: HLA-B*18:01
Assay: IEDB peptide-MHC binding, purified MHC/direct/fluorescence; filed as Kd, often an IC50 or EC50 that approximates it; bounds were set here for any values at or beyond the usual limits of such assays
Settings: source organism: West Nile virus
attribute-measured: Kd

Record request: Kd value, item VHREWFMDL ≥ 20 µM

====

Target: HLA-A*03:01
Experiment: IEDB peptide-MHC binding, purified MHC/competitive/fluorescence; bounds were set here for any values at or beyond the usual limits of such assays
Settings: source organism: Homo sapiens
attribute-measured: pIC50
Please treat pIC50 as minus the base-10 logarithm of the molar concentration.

Record request: pIC50 value, item GSSDFQVHFLK 5.99

====

Target: HLA-B*07:02
Assay: IEDB peptide-MHC binding, purified MHC/direct/fluorescence; filed as Kd, often an IC50 or EC50 that approximates it; bounds were set here for any values at or beyond the usual limits of such assays
Details: source organism: Collimonas fungivorans
pKd: −log10 of the molar value.
attribute-measured: pKd

Record request: pKd value, item AYSPFAFKK ≤ 4.70

====

Target: HLA-B*15:17
Assay: IEDB peptide-MHC binding, purified MHC/direct/fluorescence; filed as Kd, often an IC50 or EC50 that approximates it; bounds were set here for any values at or beyond the usual limits of such assays
Conditions: source organism: Mycobacterium tuberculosis
attribute-measured: Kd (nM)
The response must be a number in nM with no trailing unit.

Record request: Kd value, item RPRLWRSVI 2580

====

Target: HLA-B*18:01
Experiment: IEDB peptide-MHC binding, purified MHC/competitive/fluorescence; filed as Kd, often an IC50 or EC50 that approximates it; bounds were set here for any values at or beyond the usual limits of such assays
Settings: source organism: Escherichia coli str. K-12 substr. W3110
attribute-measured: Kd

Record request: Kd value, item IQFDWYPTS ≥ 20 µM

====

Molecular target: HLA-A*02:12
Test: IEDB peptide-MHC binding, purified MHC/direct/fluorescence; filed as Kd, often an IC50 or EC50 that approximates it; bounds were set here for any values at or beyond the usual limits of such assays
Details: source organism: Vibrio cholerae V52
attribute-measured: Kd

Record request: Kd value, item LPYPVLLKI ≥ 20 µM

====

Molecular target: HLA-A*24:02
Assay: IEDB peptide-MHC binding, purified MHC/competitive/radioactivity; filed as Kd, often an IC50 or EC50 that approximates it; bounds were set here for any values at or beyond the usual limits of such assays
Conditions: source organism: Dengue virus 2 Jamaica/1409/1983
attribute-measured: pKd
Please treat pKd as minus the base-10 logarithm of the molar concentration.

Observe how each entry below is paired with its result.
* DWIPLALTI | 7.80
* SYLAGAGLL | 7.71

API: the following record is the query input.
Record request: pKd value, item CWCNSTSTW 5.90

====

Recorded measurements of pKd, one per entry
Biological target: HLA-B*53:01
Experiment: IEDB peptide-MHC binding, purified MHC/competitive/radioactivity; filed as Kd, often an IC50 or EC50 that approximates it; bounds were set here for any values at or beyond the usual limits of such assays
Details: source organism: Dengue virus 1 Brazil/97-11/1997
Please treat pKd as minus the base-10 logarithm of the molar concentration.

- EAVEDERFW: 7.09
- EPEVANLDI: 5.14

API: the following record is the query input.
Entry LALREFKEF , system HLA-B*53:01: what pKd was measured? 5.76

====

Target: HLA-B*08:01
Assay: IEDB peptide-MHC binding, purified MHC/competitive/fluorescence; bounds were set here for any values at or beyond the usual limits of such assays
Settings: source organism: Vaccinia virus
attribute-measured: IC50

Record request: IC50 value, item GCLRIQSLM ≥ 697 µM

====

Recorded measurements of Kd, one per entry
Molecular target: HLA-B*40:01
Assay: IEDB peptide-MHC binding, purified MHC/competitive/radioactivity; filed as Kd, often an IC50 or EC50 that approximates it; bounds were set here for any values at or beyond the usual limits of such assays
Conditions: source organism: Mammarenavirus lassaense
The response must be a number in µM with no trailing unit.

• KDPLITSGC = 17.3

API: the following record is the query input.
Record request: Kd value, item KEAYCQEFFL 10.9

FYI, the data here is from the Immune Epitope Database (IEDB).
